Target: human TGR5 (h-TGR5) (Homo sapiens)
Construct: expressed in transfected cells
Sequence (Q8TDU6 whole entry): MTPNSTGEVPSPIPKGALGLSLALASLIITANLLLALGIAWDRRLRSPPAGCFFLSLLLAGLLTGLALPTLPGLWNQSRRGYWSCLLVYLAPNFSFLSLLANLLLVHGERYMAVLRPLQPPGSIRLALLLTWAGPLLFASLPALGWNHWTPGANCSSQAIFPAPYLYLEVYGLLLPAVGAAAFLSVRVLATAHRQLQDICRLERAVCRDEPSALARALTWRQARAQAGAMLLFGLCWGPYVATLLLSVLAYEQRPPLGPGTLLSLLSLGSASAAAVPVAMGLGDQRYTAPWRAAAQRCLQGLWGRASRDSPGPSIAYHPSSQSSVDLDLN
Assay: TGR5/CRE-Luciferiase Assay (HEK 293 hTGR5/CRE-Luc cells)
Type: cell-based
Details: h-TGR5 CRE-Luc EC50, Table 1; read-out: CRE-Luc (EC50)
measure: EC50

{"substance-smiles": "CC(C)NC(=O)NS(=O)(=O)c1ccc(CSc2ncc(C(C)(C)c3ccc(F)c(C#N)c3)n2-c2ccc(F)cc2)c(Cl)c1", "EC50": "100 to 1000 nM"}
{"substance-smiles": "COc1ccc(C(C)(C)c2cnc(SCc3ccc(F)c(C(=O)O)c3)n2-c2ccc(F)cc2)cc1Cl", "EC50": "100 to 1000 nM"}
{"substance-smiles": "CC(C)(c1ccc(Cl)c(Cl)c1)c1cnc(C2CCN(S(C)(=O)=O)CC2)n1-c1ccc(F)cc1", "EC50": "1000 to 10000 nM"}

Input `CC(C)(c1ccc(Cl)c(Cl)c1)c1cnc(SCc2ccc(F)cc2Cl)n1-c1ccc(F)c(CO)c1` . Output EC50: 100 to 1000 nM
